system_tested: hCA II (Homo sapiens)
protocol_text: biochemical
Assay type: biochemical
condition_parameters: mean ± standard error; Lineweaver-Burk; read-out: K I hCA II
This section presents compounds with their documented Ki values.

{"columns": ["compound", "system_tested", "Ki [nM]"],
 "data": [
  ["CC1=NN(C(=O)c2ccc(C)cc2)C(=O)C1/N=N/c1ccc(S(N)(=O)=O)cc1 (stereo not drawn)", "hCA II (Homo sapiens)", 42.6],
  ["CC1=NN(C(=O)c2ccc(C)cc2)C(=O)C1N=Nc1cccc(S(N)(=O)=O)c1 (stereo not drawn)", "hCA II (Homo sapiens)", 36.2],
  ["CC1=NN(C(=O)c2ccccc2)C(=O)C1/N=N/c1cccc(S(N)(=O)=O)c1 (stereo not drawn)", "hCA II (Homo sapiens)", 55.7]
]}

* * *

BChE (Homo sapiens, UniProt P06276): reported pKi for various molecules.
Sequence (P06276 29-602, species assumed): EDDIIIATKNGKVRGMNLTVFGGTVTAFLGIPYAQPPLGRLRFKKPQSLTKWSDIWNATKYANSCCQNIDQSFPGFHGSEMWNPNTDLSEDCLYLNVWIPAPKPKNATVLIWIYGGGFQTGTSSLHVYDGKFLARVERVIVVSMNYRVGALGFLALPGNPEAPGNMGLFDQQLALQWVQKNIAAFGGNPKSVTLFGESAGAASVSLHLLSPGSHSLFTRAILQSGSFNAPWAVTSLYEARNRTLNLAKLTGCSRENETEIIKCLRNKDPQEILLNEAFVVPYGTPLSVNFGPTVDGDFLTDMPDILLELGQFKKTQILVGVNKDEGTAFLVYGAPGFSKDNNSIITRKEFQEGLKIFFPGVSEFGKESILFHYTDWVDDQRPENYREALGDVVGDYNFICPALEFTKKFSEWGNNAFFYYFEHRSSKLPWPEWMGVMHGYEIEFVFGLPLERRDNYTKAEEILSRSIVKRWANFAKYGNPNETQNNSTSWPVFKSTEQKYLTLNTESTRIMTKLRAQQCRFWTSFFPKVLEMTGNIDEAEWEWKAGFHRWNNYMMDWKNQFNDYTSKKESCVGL
pKi: −log10 of the molar value.

{"columns": ["molecule", "pKi"],
 "data": [
  ["CC1=NN(C(=O)c2ccc(Cl)cc2)C(=O)C1/N=N/c1cccc(S(N)(=O)=O)c1 (stereo not drawn) [2b]", 7.12],
  ["CC1=NN(C(=O)c2ccc(Cl)cc2)C(=O)C1/N=N/c1ccc(S(N)(=O)=O)cc1 (stereo not drawn) [1b]", 7.13],
  ["CC1=NN(C(=O)c2ccc(C)cc2)C(=O)C1N=Nc1cccc(S(N)(=O)=O)c1 (stereo not drawn) [2d]", 7.05],
  ["CC1=NN(C(=O)c2ccc(C)cc2)C(=O)C1/N=N/c1ccc(S(N)(=O)=O)cc1 (stereo not drawn) [1d]", 7.19],
  ["CC1=NN(C(=O)c2ccc(Br)cc2)C(=O)C1/N=N/c1cccc(S(N)(=O)=O)c1 (stereo not drawn) [2c]", 7.02],
  ["CC1=NN(C(=O)c2ccccc2)C(=O)C1/N=N/c1ccc(S(N)(=O)=O)cc1 (stereo not drawn) [1a]", 7.02],
  ["CC1=NN(C(=O)c2cccc(Cl)c2)C(=O)C1/N=N/c1ccc(S(N)(=O)=O)cc1 (stereo not drawn) [1f]", 7.24],
  ["CC1=NN(C(=O)c2ccc(Br)cc2)C(=O)C1N=Nc1ccc(S(N)(=O)=O)cc1 (stereo not drawn) [1c]", 7.46],
  ["COc1ccc(C(=O)N2N=C(C)C(/N=N/c3cccc(S(N)(=O)=O)c3)C2=O)cc1 (stereo not drawn) [2e]", 7.03],
  ["CC1=NN(C(=O)c2cccc(Cl)c2)C(=O)C1/N=N/c1cccc(S(N)(=O)=O)c1 (stereo not drawn) [2f]", 6.87],
  ["COc1ccc(C(=O)N2N=C(C)C(N=Nc3ccc(S(N)(=O)=O)cc3)C2=O)cc1 (stereo not drawn) [1e]", 7.09],
  ["CC1=NN(C(=O)c2ccccc2)C(=O)C1/N=N/c1cccc(S(N)(=O)=O)c1 (stereo not drawn) [2a]", 7.01]
]}

* * *

This section presents compounds with their documented Ki values.
system_tested: hCA II (Homo sapiens)
property_name: Ki (nM)

{"columns": ["compound", "system_tested", "property_name", "meas_value"],
 "data": [
  ["CC1=NN(C(=O)c2ccc(Cl)cc2)C(=O)C1/N=N/c1ccc(S(N)(=O)=O)cc1 (stereo not drawn)", "hCA II (Homo sapiens)", "Ki", 50.8],
  ["COc1ccc(C(=O)N2N=C(C)C(N=Nc3ccc(S(N)(=O)=O)cc3)C2=O)cc1 (stereo not drawn)", "hCA II (Homo sapiens)", "Ki", 63.7],
  ["CC1=NN(C(=O)c2cccc(Cl)c2)C(=O)C1/N=N/c1cccc(S(N)(=O)=O)c1 (stereo not drawn)", "hCA II (Homo sapiens)", "Ki", 33.3],
  ["CC1=NN(C(=O)c2cccc(Cl)c2)C(=O)C1/N=N/c1ccc(S(N)(=O)=O)cc1 (stereo not drawn)", "hCA II (Homo sapiens)", "Ki", 62.2],
  ["CC1=NN(C(=O)c2ccc(Cl)cc2)C(=O)C1/N=N/c1cccc(S(N)(=O)=O)c1 (stereo not drawn)", "hCA II (Homo sapiens)", "Ki", 24.8],
  ["COc1ccc(C(=O)N2N=C(C)C(/N=N/c3cccc(S(N)(=O)=O)c3)C2=O)cc1 (stereo not drawn)", "hCA II (Homo sapiens)", "Ki", 35.4],
  ["CC1=NN(C(=O)c2ccc(Br)cc2)C(=O)C1/N=N/c1cccc(S(N)(=O)=O)c1 (stereo not drawn)", "hCA II (Homo sapiens)", "Ki", 28.8],
  ["CC1=NN(C(=O)c2ccccc2)C(=O)C1/N=N/c1ccc(S(N)(=O)=O)cc1 (stereo not drawn)", "hCA II (Homo sapiens)", "Ki", 65.5],
  ["CC1=NN(C(=O)c2ccc(Br)cc2)C(=O)C1N=Nc1ccc(S(N)(=O)=O)cc1 (stereo not drawn)", "hCA II (Homo sapiens)", "Ki", 85.4]
]}

* * *

hCA I (Homo sapiens): reported Ki for various compounds.
Sequence (P00915 whole entry): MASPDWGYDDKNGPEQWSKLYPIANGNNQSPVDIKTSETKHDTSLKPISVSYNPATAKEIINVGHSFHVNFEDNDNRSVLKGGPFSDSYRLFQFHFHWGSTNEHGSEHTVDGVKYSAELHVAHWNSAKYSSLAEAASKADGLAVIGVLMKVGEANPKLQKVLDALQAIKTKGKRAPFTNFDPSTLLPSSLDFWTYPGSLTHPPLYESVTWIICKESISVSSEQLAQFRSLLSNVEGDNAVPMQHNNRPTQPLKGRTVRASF
property_name: Ki (nM)

{"columns": ["compound", "meas_value"],
 "data": [
  ["COc1ccc(C(=O)N2N=C(C)C(/N=N/c3cccc(S(N)(=O)=O)c3)C2=O)cc1 (stereo not drawn) [2e]", 49],
  ["CC1=NN(C(=O)c2ccccc2)C(=O)C1/N=N/c1ccc(S(N)(=O)=O)cc1 (stereo not drawn) [1a]", 53.9],
  ["COc1ccc(C(=O)N2N=C(C)C(N=Nc3ccc(S(N)(=O)=O)cc3)C2=O)cc1 (stereo not drawn) [1e]", 75.5],
  ["CC1=NN(C(=O)c2ccc(C)cc2)C(=O)C1/N=N/c1ccc(S(N)(=O)=O)cc1 (stereo not drawn) [1d]", 65.1],
  ["CC1=NN(C(=O)c2ccc(Br)cc2)C(=O)C1/N=N/c1cccc(S(N)(=O)=O)c1 (stereo not drawn) [2c]", 44.6],
  ["CC1=NN(C(=O)c2ccc(Cl)cc2)C(=O)C1/N=N/c1cccc(S(N)(=O)=O)c1 (stereo not drawn) [2b]", 37.1],
  ["CC1=NN(C(=O)c2cccc(Cl)c2)C(=O)C1/N=N/c1ccc(S(N)(=O)=O)cc1 (stereo not drawn) [1f]", 66.8],
  ["CC1=NN(C(=O)c2ccc(C)cc2)C(=O)C1N=Nc1cccc(S(N)(=O)=O)c1 (stereo not drawn) [2d]", 18],
  ["CC1=NN(C(=O)c2ccc(Cl)cc2)C(=O)C1/N=N/c1ccc(S(N)(=O)=O)cc1 (stereo not drawn) [1b]", 55.9]
]}

* * *

AChE (Homo sapiens): reported Ki for various molecules.
Sequence (P22303 32-614): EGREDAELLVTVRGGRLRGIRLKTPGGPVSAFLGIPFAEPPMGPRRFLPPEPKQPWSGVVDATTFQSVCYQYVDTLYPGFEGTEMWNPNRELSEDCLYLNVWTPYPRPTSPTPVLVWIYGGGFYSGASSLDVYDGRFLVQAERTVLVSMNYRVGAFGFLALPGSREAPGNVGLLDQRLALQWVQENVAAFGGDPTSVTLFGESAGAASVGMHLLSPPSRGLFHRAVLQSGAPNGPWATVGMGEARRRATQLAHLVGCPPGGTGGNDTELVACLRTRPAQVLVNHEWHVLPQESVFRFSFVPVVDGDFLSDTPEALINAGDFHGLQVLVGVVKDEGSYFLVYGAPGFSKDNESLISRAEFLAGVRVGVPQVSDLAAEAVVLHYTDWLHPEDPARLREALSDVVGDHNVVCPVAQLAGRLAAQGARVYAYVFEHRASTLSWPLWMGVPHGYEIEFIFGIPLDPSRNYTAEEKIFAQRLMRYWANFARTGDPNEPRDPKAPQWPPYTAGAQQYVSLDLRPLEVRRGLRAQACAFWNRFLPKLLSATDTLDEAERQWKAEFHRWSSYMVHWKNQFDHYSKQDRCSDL
property_name: Ki

{"columns": ["molecule", "system_tested", "meas_value"],
 "data": [
  ["CC1=NN(C(=O)c2ccc(C)cc2)C(=O)C1N=Nc1cccc(S(N)(=O)=O)c1 (stereo not drawn)", "AChE (Homo sapiens)", "15.8 nM"],
  ["CC1=NN(C(=O)c2ccc(Cl)cc2)C(=O)C1/N=N/c1cccc(S(N)(=O)=O)c1 (stereo not drawn)", "AChE (Homo sapiens)", "8.66 nM"],
  ["CC1=NN(C(=O)c2ccc(Br)cc2)C(=O)C1N=Nc1ccc(S(N)(=O)=O)cc1 (stereo not drawn)", "AChE (Homo sapiens)", "9.47 nM"],
  ["CC1=NN(C(=O)c2cccc(Cl)c2)C(=O)C1/N=N/c1cccc(S(N)(=O)=O)c1 (stereo not drawn)", "AChE (Homo sapiens)", "9.52 nM"],
  ["COc1ccc(C(=O)N2N=C(C)C(N=Nc3ccc(S(N)(=O)=O)cc3)C2=O)cc1 (stereo not drawn)", "AChE (Homo sapiens)", "14 nM"],
  ["CC1=NN(C(=O)c2ccc(Br)cc2)C(=O)C1/N=N/c1cccc(S(N)(=O)=O)c1 (stereo not drawn)", "AChE (Homo sapiens)", "8.43 nM"]
]}
